experiment: recombinant UMI read abundance after kanamycin selection (control-corrected) (log10(CPM+1)); higher = more efficient recombination; extreme values may be limits of the assay; sequences stand for … in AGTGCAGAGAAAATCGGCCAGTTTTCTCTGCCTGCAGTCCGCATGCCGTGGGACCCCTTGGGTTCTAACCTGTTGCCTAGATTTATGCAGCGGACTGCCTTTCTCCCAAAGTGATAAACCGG…AGGTTGGTTTCACT; site = the 11-nt donor
quantity: recombinant UMI read abundance (log10)

residue codes | quantitative readout
CGATTGGCATGGACCGGTTTTCCCGGTAATCCGTATTTGCA (site CGATTGGCTTG) | 2.02
TCAGAGACATGGACCGGTTTTCCCGGTAATCCGTATTTGAG (site TCAGAGACTCA) | 0.02
CGGAATTCATGGACCGGTTTTCCCGGTAATCCGTATTTGTT (site CGGAATTCTAA) | 2.72

###

test: recombinant barcode read abundance after kanamycin selection (control-corrected) (log10(CPM+1)); higher = more efficient recombination; sequences stand for … in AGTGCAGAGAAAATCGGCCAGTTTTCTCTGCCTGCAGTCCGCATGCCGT…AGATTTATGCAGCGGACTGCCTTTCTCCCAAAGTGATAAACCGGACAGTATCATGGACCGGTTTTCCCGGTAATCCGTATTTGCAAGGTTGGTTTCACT; site = the 11-nt target
Recorded recombinant barcode read abundance (log10) determines the group label, using low = under 0.06, moderate = from 0.06 up to 0.5, high = 0.5 and over

residue codes | class assignment
CACTGTTCTTGGGTTCTAACCTGTTGCCT (site CACTGGTCTAG) | moderate
AAGGCGCCTTGGGTTCTAACCTGTTGCCT (site ATGGCGCCTAG) | moderate
ATTTAACCTTGGGTTCTAACCTGTTGCGT (site GGGGTGTCTCG) | moderate
TGGGTCCCTTGGGTTCTAACCTGTTGCTT (site TGGGTCCCTAA) | high
TCCCACACTTGGGTTCTAACCTGTTGCCA (site ACCCACACTCG) | moderate
GATAGTGCTTGGGTTCTAACCTGTTGCCT (site GATAGTCCTAG) | moderate
GGTTGTCCTTGGGTTCTAACCTGTTGCTA (site GATTGTCCTAA) | moderate
TCTCCAGCTTGGGTTCTAACCTGTTGCCT (site TCGCAAGCTAG) | low
AGGGTCACTTGGGTTCTAACCTGTTGCCT (site ACGGTCACTAG) | high
TTCAACTCTTGGGTTCTAACCTGTTGCGT (site TTCAAGTCTAC) | low
GACCGTCCTTGGGTTCTAACCTGTTGCCA (site GACTGTCCTTC) | moderate
TGCGCTACTTGGGTTCTAACCTGTTGCCT (site TGCGCCACTAG) | low
CGGCCCACTTGGGTTCTAACCTGTTGCGG (site CGGCCCACTCC) | high
ACTAGTCCTTGGGTTCTAACCTGTTGCCT (site ACTAGTCCTAC) | high

###

assay: recombinant barcode read abundance after kanamycin selection (control-corrected) (log10(CPM+1)); higher = more efficient recombination; sequences stand for … in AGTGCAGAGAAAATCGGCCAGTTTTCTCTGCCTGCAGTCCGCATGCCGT…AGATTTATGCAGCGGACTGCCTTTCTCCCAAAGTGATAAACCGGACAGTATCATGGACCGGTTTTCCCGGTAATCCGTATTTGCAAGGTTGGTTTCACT; site = the 11-nt target
Values of recombinant barcode read abundance (log10) greater than or equal to 0.1 map to met; values below map to not met.

residue codes | class assignment
CTACAGACTTGGGTTCTAACCTGTTGCGG (site CTACAGACTCC) | met
GTCAAACCTTGGGTTCTAACCTGTTGCTG (site GTCAAGCCTCA) | not met
TCTTATTCTTGGGTTCTAACCTGTTGCGT (site TCTCATTCTAC) | not met
TCCCAAACTTGGGTTCTAACCTGTTGCAC (site TCCCAAACTGT) | met
TATTGGACTTGGGTTCTAACCTGTTGCTT (site CATTGGACTAA) | not met
ACTTCTACTTGGGTTCTAACCTGTTGCTA (site ACATCTACTTA) | met

###

experiment: recombinant UMI read abundance after kanamycin selection (control-corrected) (log10(CPM+1)); higher = more efficient recombination; extreme values may be limits of the assay; sequences stand for … in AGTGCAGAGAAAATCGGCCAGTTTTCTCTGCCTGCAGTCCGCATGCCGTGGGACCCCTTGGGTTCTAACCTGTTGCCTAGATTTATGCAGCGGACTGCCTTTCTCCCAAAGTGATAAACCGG…AGGTTGGTTTCACT; site = the 11-nt donor
Values of recombinant UMI read abundance (log10) greater than or equal to 1 map to Satisfied; values below map to Not satisfied.

residue codes | class assignment
CTAGTATCATGGACCGGTTTTCCCGGTAATCCGTATTTGAT (site CTAGTATCTTT) | Satisfied
AACATGCCATGGACCGGTTTTCCCGGTAATCCGTATTTGCT (site AACATGCCTAG) | Satisfied
ACCGGGACATGGACCGGTTTTCCCGGTAATCCGTATTTGAG (site ACCGGGACTCT) | Satisfied
CTAGGACCATGGACCGGTTTTCCCGGTAATCCGTATTTGAC (site CTAGTATCTGT) | Not satisfied
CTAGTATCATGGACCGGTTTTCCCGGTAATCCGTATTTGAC (site GTAGTATCTAT) | Not satisfied
AGCTCCGCATGGACCGGTTTTCCCGGTAATCCGTATTTGGG (site AGCTCGGCTCC) | Not satisfied
GGTATGGCATGGACCGGTTTTCCCGGTAATCCGTATTTGCA (site GGTATGGCTTG) | Satisfied
CGTAAAGCATGGACCGGTTTTCCCGGTAATCCGTATTTGAT (site CCTAAAGCTAT) | Not satisfied
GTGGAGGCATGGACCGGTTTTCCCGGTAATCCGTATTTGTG (site CTGGAGGCTCA) | Not satisfied
AATTATCCATGGACCGGTTTTCCCGGTAATCCGTATTTGCT (site GATTATCCTAG) | Not satisfied
ATGACATCATGGACCGGTTTTCCCGGTAATCCGTATTTGAT (site ATGACATCTAT) | Satisfied
AGTTGTCCATGGACCGGTTTTCCCGGTAATCCGTATTTGGG (site AGTTGTCCTCC) | Not satisfied
AACTCGCCATGGACCGGTTTTCCCGGTAATCCGTATTTGCT (site AACTCGCCTAG) | Satisfied
TAGCTAGCATGGACCGGTTTTCCCGGTAATCCGTATTTGAG (site TAGCTAGCTCT) | Not satisfied
CGCTCCGCATGGACCGGTTTTCCCGGTAATCCGTATTTGCA (site CGCTCCGCTTG) | Satisfied
CAAGGCCCATGGACCGGTTTTCCCGGTAATCCGTATTTGTC (site CAAGGCCCTGA) | Satisfied
TAGCTAGCATGGACCGGTTTTCCCGGTAATCCGTATTTGAC (site TAGCTAGCTGT) | Satisfied
TTAGCGGCATGGACCGGTTTTCCCGGTAATCCGTATTTGCT (site TTAGCGGCTAG) | Satisfied
ATCAAAGCATGGACCGGTTTTCCCGGTAATCCGTATTTGAG (site ATCTAAGCTCT) | Not satisfied
CAAACATCATGGACCGGTTTTCCCGGTAATCCGTATTTGTA (site CAAACATCTTA) | Satisfied
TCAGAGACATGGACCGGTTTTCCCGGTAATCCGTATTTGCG (site ACAGAGACTCG) | Satisfied
GGGGCGCCATGGACCGGTTTTCCCGGTAATCCGTATTTGCA (site GGGGCACCTTG) | Not satisfied

###

test: recombinant UMI read abundance after kanamycin selection (control-corrected) (log10(CPM+1)); higher = more efficient recombination; extreme values may be limits of the assay; sequences stand for … in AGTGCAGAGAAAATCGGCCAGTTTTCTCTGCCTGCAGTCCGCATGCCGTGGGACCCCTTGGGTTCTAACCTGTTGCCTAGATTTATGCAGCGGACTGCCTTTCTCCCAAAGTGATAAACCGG…AGGTTGGTTTCACT; site = the 11-nt donor

residue codes | recombinant UMI read abundance (log10)
GCTAGTGCATGGACCGGTTTTCCCGGTAATCCGTATTTGGT (site ACTAGTGCTAC) | 1.31
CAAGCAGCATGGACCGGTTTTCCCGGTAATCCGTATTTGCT (site CAACCAGCTAG) | 0
GGGGCAGCATGGACCGGTTTTCCCGGTAATCCGTATTTGCA (site GGGGCAACTTG) | 1.47
GGGGCACCATGGACCGGTTTTCCCGGTAATCCGTATTTGTA (site GGGGCACCTTG) | 0.00274
AAGCACGCATGGACCGGTTTTCCCGGTAATCCGTATTTGGC (site AAGCACGCTCC) | 0.0935
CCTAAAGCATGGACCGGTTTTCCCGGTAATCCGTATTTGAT (site CCTAAAGCTTT) | 0
